Taken from ChEMBL document CHEMBL3433997.

# TEST TARGET: Glucose transporter (Leishmania mexicana) (UniProt O61059)
# ASSAY NAME: ST_JUDE_LEISH: Cytotoxicity at 2uM final concentration against transgenic Leishmania Mexicana promastigotes LmGT2 that are glucose transport deficient and complemented with the L. Mexicana glucose transporter 2. Activity is measured by DNA content using SYBR green in vitro
# Type: functional
Assignment: determine reported inhibition for the given compounds.
Unit % implied. Number only.

GET /value?item= CCCn1c(Sc2ccc(C#N)c([N+](=O)[O-])c2)nnc1-c1ccc(Cl)cc1 &field=inhibition returns 2.23

Sample NCC1CCCN1Cc1cccc(-c2ccc(-c3nc4cc(C(F)(F)F)ccc4[nH]3)s2)c1 (stereo not given) ; inhibition observed: 0.38

Briefly, inhibition measured for CC(C)(C)c1ccc(CN2CCC(CNC(=O)c3cc(-c4cccc(Cl)c4)cs3)C2)cc1 (stereo not given) : 1.5

Looking up COc1ccc(NC(=O)[C@H](Cc2ccccc2)Nc2cc(C)nc(NCCc3cccs3)n2)cc1 , I see its inhibition listed as -0.24

The measured inhibition associated with CCC(CSC1CCCCC1)N(C)CCN(C)C(CC)CSC1CCCCC1 (stereo not given) reads 4.54

GET /value?item= COc1ccc(CNCc2ccc(-c3ccc(CNCCc4ccccc4)cn3)cc2)cn1 &field=inhibition returns 1.46

GET /value?item= CC(Oc1ccc(Cl)cc1)C(=O)Nc1cc(C(F)(F)F)ccc1N1CCOCC1 (stereo not given) &field=inhibition returns 6.86

Looking up O=C(Nc1ccc(-c2nc3cc4ccccc4cc3[nH]2)cc1)c1cccc(Br)c1 , I found its inhibition recorded as 5.72

Just so you know, measured inhibition for CS(=O)(=O)c1cccc(-c2cnc3[nH]cc(-c4ccc(CCC(=O)O)cc4)c3c2)c1 came out at 0.31

Lab book: inhibition of CS(=O)(=O)c1ccc(-c2cnc(N)c(-c3cccc(O)c3)c2)cc1 noted as 6.07

GET /value?item= COc1cc(NC(=O)N2CCc3ccc(OCCN(C(C)C)C(C)C)cc32)cc(C(F)(F)F)c1 &field=inhibition returns 2.06

Form field inhibition, entry O=C(Nc1ccc(S(=O)(=O)N2CCCCC2)cc1)c1cc(-c2ccccc2O)n[nH]1 : 10.8

Kindly note the recorded inhibition for CCCCCCNC(=N)c1ccc(OCCCCCOc2ccc(C(=N)NCCCCCC)cc2)cc1 , which is 37.2

Form: compound = Cc1cccc2nc(-c3ccc(-c4ccc(CNCC5CCCO5)cc4)s3)[nH]c12 (stereo not given) ; inhibition = 1.98

For record Nc1ncc(Cc2cc(Cl)c(N)c3ncccc23)c(N)n1 the listed inhibition is 2.91

Memo: O=C(NC1CCN(c2ccnc3cc(Cl)ccc23)C1)c1cccc(F)c1 (stereo not given) , reported inhibition: 1.42

CCCCCOc1c(CCC)cc(Cc2cnc(N)nc2N)cc1CCC yielded inhibition of 4.12

Entry O=C(c1ccccc1)N1CCC(CN2CCOC(c3ccccc3)(c3ccccc3)C2)CC1 , inhibition reported as 2.8

Note to self: inhibition recorded for CN(CCN)Cc1ccc(-c2ccc(-c3nc4cc(C(F)(F)F)ccc4[nH]3)s2)cc1 was 11.4

Input COc1ccc(-c2ccc(NC(=O)c3cccc(C#N)c3)cc2)cc1CN1CCCN(C)CC1 . Output inhibition: -0.48

====

# TEST TARGET: Solute carrier family 2, facilitated glucose transporter member 1 (Homo sapiens) (UniProt P11166)
# Sequence (P11166 whole entry): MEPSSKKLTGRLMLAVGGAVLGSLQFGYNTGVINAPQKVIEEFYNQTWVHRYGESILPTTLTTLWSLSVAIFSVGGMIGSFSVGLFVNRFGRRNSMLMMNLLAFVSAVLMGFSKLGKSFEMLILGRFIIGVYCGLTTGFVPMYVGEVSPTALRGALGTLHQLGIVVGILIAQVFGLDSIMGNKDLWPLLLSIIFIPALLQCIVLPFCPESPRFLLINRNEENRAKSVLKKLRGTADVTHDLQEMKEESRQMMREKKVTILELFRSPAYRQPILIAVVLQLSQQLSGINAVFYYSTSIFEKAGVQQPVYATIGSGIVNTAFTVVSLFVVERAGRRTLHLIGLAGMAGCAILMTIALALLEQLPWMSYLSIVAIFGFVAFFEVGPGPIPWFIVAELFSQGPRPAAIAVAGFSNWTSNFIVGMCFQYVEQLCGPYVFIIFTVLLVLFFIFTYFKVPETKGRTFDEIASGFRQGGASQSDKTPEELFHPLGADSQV
# ASSAY NAME: ST_JUDE_LEISH: Cytotoxicity at 2uM final concentration against transgenic Leishmania Mexicana promastigotes LmGLUT1 that are glucose transport deficient and complemented with the human glucose transporter GLUT1. Activity is measured by DNA content using SYBR green in vitro
# Format: functional
Assign inhibition to each entry below.
The answer is to be given in %; state only the numeric part.

Item: CN(C)C(CNC(=O)c1cc(-c2ccncc2)c(-c2ccc(Cl)c(O)c2)o1)c1ccccc1 (stereo unspecified) | inhibition: 1.95

Entry CC(C)CC(NC(=O)c1cc2ccccc2s1)C(=O)N1CCCCCC1c1ccc(C(C)(C)C)cc1 (stereo unspecified) , inhibition reported as -2.77

The reported inhibition of the compound COc1ccc(C(=O)CCc2ccc(O)cc2)cc1 was 1.26

The reported inhibition of the compound N#Cc1ccc(CN2CCC(Oc3ccc(NC(=O)c4ccco4)cc3Cl)CC2)cc1 was 0.38

Noted for N#Cc1ccc(C2CCN(CC[C@H](N)Cc3ccc(Cl)s3)CC2)cc1 : its inhibition reads 22.8

So for O=C(Nc1cc(C(F)(F)F)cc(C(F)(F)F)c1)N1CCC(CCN2CCC(c3c[nH]c4ccccc34)CC2)CC1 , the logged inhibition turned out to be 5.87

Record COc1ccc2ccccc2c1C=NN=c1cc[nH]c2ccc(F)cc12 . Reported inhibition: 3.72

For this compound ( Cc1ccc(Nc2nccc(NCC(O)c3cccc(F)c3)n2)cc1 (stereo unspecified) ), measured inhibition is 0.93

Documented inhibition of Cc1cc(N(C)C)nc(Nc2ccc(NS(=O)(=O)c3ccccc3)cc2)n1 : 7.64

Please fill in: inhibition reported for CN(C1CCC(NC(=O)/C=C/c2ccccc2)CC1)C1CC2(CCN(C(=O)OC(C)(C)C)CC2)c2ccccc21 (stereo unspecified) = 9.97

In plain terms, O=C(Nc1cc(Cl)cc(Cl)c1)c1cc(Cl)c(=O)n(Cc2cccc(Cl)c2)c1 has a documented inhibition of 3.25

inhibition for CC(C)N1CCN(C(=O)c2ccc(CNCCCN3CCN(c4ccccc4C(F)(F)F)CC3)s2)CC1 is -4.83

Record summary for COc1ccc2nc(C)cc(Nc3ccc(N4CCN(C)CC4)cc3)c2c1 : reported inhibition = 0.93

The recorded inhibition for entry O=C(/C=C/c1ccc(C(F)(F)F)cc1)N1CCc2cc3nccc(N4CCN5CCC[C@H]5C4)c3cc21 equals 1.68

The reported value for COc1ccc2c(NN=Cc3ccccc3F)ccnc2c1 in terms of inhibition is 3.28

Notebook: CCc1nc(N)nc(N)c1-c1ccccc1 , inhibition read as 2.31

The measured inhibition associated with O=C(Nc1cccc(C(F)(F)F)c1)c1cccc(S(=O)(=O)NCC2CCCN(Cc3ccccc3)C2)c1 (stereo unspecified) reads 1.71

inhibition recorded for this compound, O=C(Nc1ccc(F)c(Cl)c1)NC1CCN(c2ccnc3cc(Cl)ccc23)C1 (stereo unspecified) , is 6.4

Per the records, this compound ( COc1ccc(CNC(=N)Nc2nc(-c3ccc(OCCCn4ccnc4)cc3)cs2)cc1 ) has inhibition equal to 10.6

Looking up CCCC1(C)CSc2ccccc2C(c2ccccc2)N1 (stereo unspecified) , I see its inhibition listed as 4.9

Quick note, inhibition for Cc1nnc(NC(=O)c2cn(-c3ccccc3)nc2-c2ccccc2C)o1 landed at 1.69

====

Provide the recorded inhibition for the entries that follow.
# TEST TARGET: Glucose transporter (Leishmania mexicana)
# ASSAY NAME: ST_JUDE_LEISH: Cytotoxicity at 2uM final concentration against transgenic Leishmania Mexicana promastigotes LmGT2 that are glucose transport deficient and complemented with the L. Mexicana glucose transporter 2. Activity is measured by DNA content using SYBR green in vitro
# Assay type: functional
State the answer as a number, implicitly in %.

Sure, the documented inhibition for Cc1ccc(Oc2ccccc2NC(=O)CCc2nc3ccccc3c(=O)[nH]2)cc1 is 2.88

inhibition measured on COc1ccc(-c2nc(NC(=O)CS(=O)(=O)c3ccc(F)cc3)sc2C)cc1 = 2.47

Lab book: inhibition of COc1ccccc1CCNc1nc(C)cc(N[C@@H](Cc2ccccc2)C(=O)Nc2ccccc2)n1 noted as 8.65

Item: C[C@@H](NC(=O)c1nn(-c2ccc(Cl)cc2)c(=O)c2ccccc12)C(C)(C)C | inhibition: 0.85

The measured inhibition associated with Nc1c2ccccc2nc2cc(C(F)(F)F)ccc12 reads 1.3

Notebook: COc1ccc(-c2ccc(NC(=O)c3cccc(C#N)c3)cc2)cc1CN1CCNCC1 , inhibition read as 4.28

get_value(item= c1ccc(CCNc2ccnc(Nc3ccc4cn[nH]c4c3)n2)cc1 , readout=inhibition) returns 10

Kindly note the recorded inhibition for Cn1cnc2c(Nc3ccncc3)nc(-c3ccc4ccccc4c3)nc21 , which is -0.56

response.value for CNC(=O)c1cnc(Nc2ccc(OCC(O)CN(C)C)cc2)nc1Nc1cccc(OC(C)C)c1 (stereo not given) (field: inhibition) = 1.38

Value of inhibition reported for the compound COc1cccc(Nc2nccc(-c3c(-c4cccc(NC(=O)c5c(F)cccc5F)c4)nn4ccccc34)n2)c1 is 5.92

====

# TEST TARGET: Glucose transporter (Leishmania mexicana)
# ASSAY NAME: ST_JUDE_LEISH: Cytotoxicity at 2uM final concentration against transgenic Leishmania Mexicana promastigotes LmGT2 that are glucose transport deficient and complemented with the L. Mexicana glucose transporter 2. Activity is measured by DNA content using SYBR green in vitro
# Type: functional
PARAMETER MEASURED: inhibition (%)
// note: answer is a bare numeric in %

Record summary for CC1(C)S(=O)(=O)CC(O)CS1(=O)=O : reported inhibition = 2.49

The value of inhibition measured for the compound CS(=O)(=O)Nc1cccc(-c2cnc3[nH]cc(-c4ccc(C(=O)O)c(F)c4)c3c2)c1 turned out to be 1.09

Noted for COc1ccc(-c2cccc(NC(=O)c3cccs3)c2)cc1CN1CCCN(C)CC1 : its inhibition reads -1.25

// sample COc1cc(N(Cc2ccc(F)cc2)C(=O)c2ccc(-c3ccccc3)cc2)ccc1OCCN1CCCC1 , its inhibition was 7.12

Entry CCC(C)(C)c1ccc2nc(N)nc(N)c2c1C — recorded inhibition = 61.7

Kindly note the recorded inhibition for N=c1cc(C=Cc2ccc(O)cc2)[nH]c2ccccc12 , which is 3.12

The recorded inhibition for CS(=O)(=O)c1ccc(CNCc2cccc(-c3cccc(-c4nc5cc(F)ccc5[nH]4)c3)c2)cc1 is -2.93

// recorded inhibition for Cc1ccc(CNC(=O)c2cc3c(=O)n4cccc(C)c4nc3n(CCN3CCOCC3)c2=N)cc1 : 1.48

Lab note: O=c1cc(NCCC(CNCc2ccoc2)NCc2cc(Br)cc(Br)c2)[nH]c2ccccc12 (stereo unspecified) gave inhibition of 9.4

// inhibition value for COc1ccc2nc(N3CCNCC3)nc(NCCCc3ccccc3)c2c1 : 0

For reference, reported inhibition for CCCc1cc(Cc2cnc(N)nc2N)cc2c1OC(C)C2C (stereo unspecified) stands at 5.24

Lab note: O=C(/C=C/c1ccc(Cl)c(Cl)c1)NCCCCCN1CCC(c2c[nH]c3ccccc23)CC1 gave inhibition of 3.63

Input COc1ccc2[nH]c(/C=C/c3cccc4ccc(C)nc34)nc2c1 . Output inhibition: 0.69

Reported inhibition of O=C(CCCCCCc1ccccc1)Nc1ccc2nc3c(c(NCc4ccccc4)c2c1)CCCC3 : -2.98

For CCCCCN1CCCC1CNS(=O)(=O)c1cccc(C(=O)Nc2cccc(C(F)(F)F)c2)c1 (stereo unspecified) the compound record lists inhibition as 5.05

Summary for this compound, CN(C)CCNCc1nc(-c2ccc3c(Nc4ccc(Cl)cc4F)ccnc3c2)cs1 : inhibition is 10.1

The value of inhibition measured for the compound FC(F)(F)c1ccc2[nH]c(-c3cccc(-c4cccc(CN5CCN(c6ccncc6)CC5)c4)c3)nc2c1 turned out to be 3.38

response.value for Cc1cc(N/N=C/c2ccccc2[N+](=O)[O-])c2cc(F)ccc2n1 (field: inhibition) = 0.94

// O=C(Nc1ccc(Cl)cc1)c1ccc(CN2CCCN(Cc3cccc(Cl)c3)CC2)cc1 : inhibition value = -0.52

inhibition measured on COc1ccc(-c2cnc3ccc(NC4CCC(O)CC4)nn23)cn1 (stereo unspecified) = 0.93

For this compound ( COc1ccc(C2CC(c3cccs3)=NN2C(=O)c2ccccc2)cc1OC (stereo unspecified) ), measured inhibition is 5.57

Looking up CN(C)CC(O)COc1ccc(Nc2ncc([N+](=O)[O-])c(Nc3ccccc3O)n2)cc1 (stereo unspecified) , I see its inhibition listed as 1.45

Query CCCCN1CC[C@@H](CCC(O)c2cc(OCCC)nc3ccc(OC)cc23)[C@@H](CC)C1 (stereo partly specified) yields inhibition of -1.52

Looking up O=C(Cc1ccc(F)cc1)NC1CCN(c2ccnc3cc(Cl)ccc23)C1 (stereo unspecified) , I found its inhibition recorded as 2.41

Reported inhibition for Cc1cc(NC(=O)c2ccco2)ccc1OC1CCN(Cc2ccc(F)cc2)CC1 was 1.98

Record summary for NC1(C(=O)O)Cc2ccc(Cl)cc2C1 (stereo unspecified) : reported inhibition = 3.62

The compound identified as CC(C)(CNC(=O)[C@@H]1CCCN(CCOc2ccc(F)c(F)c2)C1)c1nc(-c2ccc(Cl)c(O)c2)c(-c2ccncc2)[nH]1 registered its inhibition at 1.28

Data point: CC(C)C[C@H](Nc1ccnc(NCC2CCCCC2)n1)C(=O)NCCOc1ccccc1 ; inhibition = 2.47

response.value for CN1CCCN(Cc2cccc(-c3cccc(NS(=O)(=O)c4cccc5cccnc45)c3)c2)CC1 (field: inhibition) = 2.53

# compound O=C(Cc1ccc(NC(=O)c2ccc(O)c(-c3ccc(Cl)c(Cl)c3)c2)cc1)NCCN1CCCCC1 ; its inhibition = 0.58

What the record says about Oc1cccc(Nc2ccnc3cc(-c4ccncc4)ccc23)c1 : inhibition is 8.68

The reported value for O=C(c1ccc(-c2cnc3[nH]cc(-c4ccc(C(=O)N5CCOCC5)cc4)c3c2)cc1)N1CCOCC1 in terms of inhibition is -1.88

So for Cc1cccc2c(CON3C(N)=NC(N)=NC3(C)C)cccc12 , the logged inhibition turned out to be 1.51

The compound listed as COc1ccc(CN2CCCN(Cc3cccc(NC(=O)c4ccc5ccccc5c4)c3)CC2)cc1 has a reported inhibition of 6.07

Documented inhibition of Nc1c(Cl)cc(C(O)CNCCCCCOCCCc2ccc(O)c3ncccc23)cc1Cl (stereo unspecified) : 97.5

Item: Nc1nc(Nc2ccc(Cl)cc2)nc2ccccc12 | inhibition: 6.83

inhibition recorded for this compound, OCCN1CCN(Cc2ccc(-c3ccc(-c4nc5ccccc5[nH]4)cc3)cc2)CC1 , is 7.18

Input CCCCCCc1c(C)nc2cc(OC)ccc2c1O . Output inhibition: 2.87

// inhibition lookup, compound = COc1cc2c(cc1OC)CN(CCCCNC(=O)c1ccc(NC(=O)c3cc(Cl)cc(Cl)c3)cc1)CC2 , result: 6.32

inhibition for O=C(Cc1cccnc1)N(Cc1ccc(-c2ccc(CNCc3cccnc3)cn2)cc1)C1CCN(Cc2ccccc2)CC1 is -1.68

Kindly note the recorded inhibition for CCN(CC)CCN1C(=O)c2oc3ccc(Cl)cc3c(=O)c2C1c1ccc(SC)cc1 (stereo unspecified) , which is 8.97
